targetOfAssay: p70S6K (Homo sapiens (Human), UniProt P23443)
Sequence (P23443 whole entry): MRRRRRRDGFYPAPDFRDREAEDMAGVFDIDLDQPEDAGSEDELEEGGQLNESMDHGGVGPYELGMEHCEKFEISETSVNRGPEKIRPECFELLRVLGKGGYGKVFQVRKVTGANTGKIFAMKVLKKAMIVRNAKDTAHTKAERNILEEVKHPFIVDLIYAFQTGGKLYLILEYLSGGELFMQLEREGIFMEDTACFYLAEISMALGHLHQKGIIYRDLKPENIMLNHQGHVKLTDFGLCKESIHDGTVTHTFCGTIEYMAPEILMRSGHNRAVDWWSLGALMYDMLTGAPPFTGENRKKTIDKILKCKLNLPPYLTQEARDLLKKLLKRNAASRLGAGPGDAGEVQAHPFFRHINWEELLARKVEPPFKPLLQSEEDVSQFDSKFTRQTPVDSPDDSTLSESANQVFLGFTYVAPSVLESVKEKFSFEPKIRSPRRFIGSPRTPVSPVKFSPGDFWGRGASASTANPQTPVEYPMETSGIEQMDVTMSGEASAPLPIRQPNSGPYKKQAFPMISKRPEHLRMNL
assayComment: KINATIV assay
Assay type: cell-based
conditionNotes: 1 μM, 90 minutes, BCWM.1 cells
Protocol: The cells were harvested and lysed. The lysates were directly labeled with an ATP-biotin probe. Bound kinases were identified and quantitated by ACTIVX as described in Patricelli et al., Biochemistry, 2007, 46(2): 350-358. The compounds were tested in duplicates against duplicate or quadruplicate control samples.
resultType: % change of MS signal compared to control sample (%)
The figure you give is taken to be in %; do not add the unit.

The examples below pair each entry with its known result.
* C=CC(=O)N1CCC(Cn2ccc(Nc3ncc(C(=O)Nc4c(C)cccc4Cl)s3)n2)C1 (stereo not shown) | −65.4
* C=CC(=O)N1CC[C@@H](Nc2nccc(Nc3ncc(C(=O)Nc4c(C)cccc4C)s3)n2)C1 | −102.3
* C=CC(=O)N1CCCCC(Nc2nccc(Nc3ncc(C(=O)Nc4c(C)cccc4C)s3)n2)C1 (stereo not shown) | −70.1

Value lookup for % change of MS signal compared to control sample; key = C=CC(=O)N1CCC(CNc2nccc(Nc3ncc(C(=O)Nc4c(C)cccc4C)s3)n2)C1 (racemic)
−36.8

====

Listed here are compounds together with their documented % change of MS signal compared to control sample.
targetOfAssay: PEK (Homo sapiens (Human), UniProt Q9NZJ5)
Sequence (Q9NZJ5 30-1116): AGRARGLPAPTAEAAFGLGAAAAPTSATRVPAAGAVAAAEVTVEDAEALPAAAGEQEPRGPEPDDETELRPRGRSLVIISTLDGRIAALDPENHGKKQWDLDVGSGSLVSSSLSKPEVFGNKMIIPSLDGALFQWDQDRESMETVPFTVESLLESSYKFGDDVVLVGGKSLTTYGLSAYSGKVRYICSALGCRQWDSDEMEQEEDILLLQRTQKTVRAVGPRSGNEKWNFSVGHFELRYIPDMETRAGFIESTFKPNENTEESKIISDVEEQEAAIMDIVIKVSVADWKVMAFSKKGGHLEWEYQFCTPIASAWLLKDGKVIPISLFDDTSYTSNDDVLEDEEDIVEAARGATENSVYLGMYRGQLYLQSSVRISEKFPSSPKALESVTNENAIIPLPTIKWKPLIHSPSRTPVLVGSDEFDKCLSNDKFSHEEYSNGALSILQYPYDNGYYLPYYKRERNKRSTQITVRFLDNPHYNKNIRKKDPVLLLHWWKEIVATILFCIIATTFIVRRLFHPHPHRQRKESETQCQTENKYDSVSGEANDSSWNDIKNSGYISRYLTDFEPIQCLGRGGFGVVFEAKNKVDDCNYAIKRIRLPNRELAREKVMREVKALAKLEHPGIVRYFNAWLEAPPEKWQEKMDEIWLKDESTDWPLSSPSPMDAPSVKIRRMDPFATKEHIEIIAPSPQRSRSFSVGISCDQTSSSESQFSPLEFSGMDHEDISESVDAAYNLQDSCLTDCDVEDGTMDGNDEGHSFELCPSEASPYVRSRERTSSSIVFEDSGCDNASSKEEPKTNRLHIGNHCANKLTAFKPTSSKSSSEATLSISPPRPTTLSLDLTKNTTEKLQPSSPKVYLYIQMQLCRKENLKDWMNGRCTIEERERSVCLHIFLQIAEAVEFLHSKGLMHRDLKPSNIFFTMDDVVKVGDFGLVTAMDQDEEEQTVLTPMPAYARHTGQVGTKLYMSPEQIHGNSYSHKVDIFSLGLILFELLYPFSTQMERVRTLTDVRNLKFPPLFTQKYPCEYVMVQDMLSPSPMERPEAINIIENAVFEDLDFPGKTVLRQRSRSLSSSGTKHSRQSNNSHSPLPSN
assayComment: KINATIV assay
Assay type: cell-based
conditionNotes: 1 μM, 90 minutes, BCWM.1 cells
The figure you give is taken to be in %; do not add the unit.

The examples below pair each entry with its known result.
• C=CC(=O)N1CCC(Cn2ccc(Nc3ncc(C(=O)Nc4c(C)cccc4Cl)s3)n2)C1 (stereo not shown) = −31.0
• C=CC(=O)N1CCCCC(Nc2nccc(Nc3ncc(C(=O)Nc4c(C)cccc4C)s3)n2)C1 (stereo not shown) = 2.6
• C=CC(=O)N1CCC(CNc2nccc(Nc3ncc(C(=O)Nc4c(C)cccc4C)s3)n2)C1 (racemic) = 3.3

Requested read-out % change of MS signal compared to control sample, target or system PEK (Homo sapiens (Human), UniProt Q9NZJ5), entry `C=CC(=O)N1CC[C@@H](Nc2nccc(Nc3ncc(C(=O)Nc4c(C)cccc4C)s3)n2)C1`
−44.9

====

targetOfAssay: GSK3A (Homo sapiens (Human))
Sequence (P49840 whole entry): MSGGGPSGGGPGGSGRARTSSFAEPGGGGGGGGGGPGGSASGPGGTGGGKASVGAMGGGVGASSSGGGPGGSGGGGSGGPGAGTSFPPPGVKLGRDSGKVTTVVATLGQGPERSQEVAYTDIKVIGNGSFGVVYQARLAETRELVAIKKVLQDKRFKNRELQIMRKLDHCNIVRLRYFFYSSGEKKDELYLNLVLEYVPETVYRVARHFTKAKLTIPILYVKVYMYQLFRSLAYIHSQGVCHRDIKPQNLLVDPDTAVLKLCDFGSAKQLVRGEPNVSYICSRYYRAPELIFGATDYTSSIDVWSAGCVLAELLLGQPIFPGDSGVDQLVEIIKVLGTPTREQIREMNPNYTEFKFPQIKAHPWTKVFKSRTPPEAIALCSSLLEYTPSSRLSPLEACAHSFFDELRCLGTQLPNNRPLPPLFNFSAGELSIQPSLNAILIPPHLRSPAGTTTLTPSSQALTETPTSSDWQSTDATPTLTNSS
assayComment: KINATIV assay
Type: cell-based
conditionNotes: 1 μM, 90 minutes, BCWM.1 cells
Listed here are compounds together with their documented % change of MS signal compared to control sample.
The figure you give is taken to be in %; do not add the unit.

The examples below pair each entry with its known result.
• C=CC(=O)N1CCC(Cn2ccc(Nc3ncc(C(=O)Nc4c(C)cccc4Cl)s3)n2)C1 (stereo not shown) [II-1] = −11.8
• C=CC(=O)N1CCCCC(Nc2nccc(Nc3ncc(C(=O)Nc4c(C)cccc4C)s3)n2)C1 (stereo not shown) [Example I-7] = −11.3
• C=CC(=O)N1CC[C@@H](Nc2nccc(Nc3ncc(C(=O)Nc4c(C)cccc4C)s3)n2)C1 [Example I-4] = −10.5

Here's the next entry for you.
Value lookup for % change of MS signal compared to control sample; key = C=CC(=O)N1CCC(CNc2nccc(Nc3ncc(C(=O)Nc4c(C)cccc4C)s3)n2)C1 (racemic) [Example I-8]
−14.2

====

targetOfAssay: UniProt:P27448
Sequence (P27448 whole entry): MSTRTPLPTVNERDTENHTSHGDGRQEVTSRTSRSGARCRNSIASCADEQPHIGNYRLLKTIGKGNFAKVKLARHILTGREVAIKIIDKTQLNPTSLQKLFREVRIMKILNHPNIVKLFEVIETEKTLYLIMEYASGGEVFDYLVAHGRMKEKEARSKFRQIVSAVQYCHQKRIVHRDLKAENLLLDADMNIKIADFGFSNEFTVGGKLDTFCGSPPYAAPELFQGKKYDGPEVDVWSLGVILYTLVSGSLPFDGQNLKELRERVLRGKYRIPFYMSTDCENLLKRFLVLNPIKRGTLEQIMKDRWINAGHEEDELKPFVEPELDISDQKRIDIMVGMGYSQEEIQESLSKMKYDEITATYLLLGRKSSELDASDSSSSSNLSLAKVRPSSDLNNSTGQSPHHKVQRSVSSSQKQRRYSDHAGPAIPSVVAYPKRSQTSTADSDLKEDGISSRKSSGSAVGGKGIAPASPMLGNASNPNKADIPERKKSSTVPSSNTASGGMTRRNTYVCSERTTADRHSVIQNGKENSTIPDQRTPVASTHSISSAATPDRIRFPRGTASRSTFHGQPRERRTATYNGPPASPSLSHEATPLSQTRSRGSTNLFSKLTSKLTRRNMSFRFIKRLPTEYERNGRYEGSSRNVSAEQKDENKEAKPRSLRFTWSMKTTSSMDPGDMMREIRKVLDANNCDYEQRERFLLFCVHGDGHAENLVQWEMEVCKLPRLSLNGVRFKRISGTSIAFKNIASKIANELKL
assayComment: KINATIV assay
Format: cell-based
conditionNotes: 1 μM, 90 minutes, BCWM.1 cells
resultType: % change of MS signal compared to control sample
Please state the value followed by its unit.

The examples below pair each entry with its known result.
• C=CC(=O)N1CC[C@@H](Nc2nccc(Nc3ncc(C(=O)Nc4c(C)cccc4C)s3)n2)C1 = 13.5%
• C=CC(=O)N1CCCCC(Nc2nccc(Nc3ncc(C(=O)Nc4c(C)cccc4C)s3)n2)C1 (stereo not shown) = 12.7%
• C=CC(=O)N1CCC(CNc2nccc(Nc3ncc(C(=O)Nc4c(C)cccc4C)s3)n2)C1 (racemic) = 7.8%

Here's the next entry for you.
Requested read-out % change of MS signal compared to control sample, target or system UniProt:P27448, entry C=CC(=O)N1CCC(Cn2ccc(Nc3ncc(C(=O)Nc4c(C)cccc4Cl)s3)n2)C1 (stereo not shown)
18.4%
